System: Staphylococcus aureus
Assay: Antibacterial activity against […] Staphylococcus aureus ATCC 33591 at 160 ug/ml after 24 to 36 hrs by oxford cup assay
Type: functional
Conditions: read-out: DIZ
Classify by measured zone of inhibition at 160 µg/mL: Fulfilled if it is equal to or exceeds 20 mm, Not fulfilled if it is smaller.

Req: Identify whether the reported zone of inhibition at 160 µg/mL of the following molecule is 20 mm or greater: "C=C[C@]1(C)C[C@@H](OC(=O)CSc2nc(N)cc(NC(=O)CN3CC[C@H](O)C3)n2)[C@]2(C)[C@H](C)CC[C@]3(CCC(=O)[C@H]32)[C@@H](C)[C@@H]1O"
Resp: Fulfilled

Req: Identify whether the reported zone of inhibition at 160 µg/mL of the following molecule is 20 mm or greater: "C=C[C@]1(C)C[C@@H](OC(=O)CSc2nc(N)cc(NC(=O)CN3CCOCC3)n2)[C@]2(C)[C@H](C)CC[C@]3(CCC(=O)[C@H]32)[C@@H](C)[C@@H]1O"
Resp: Not fulfilled

Req: Identify whether the reported zone of inhibition at 160 µg/mL of the following molecule is 20 mm or greater: "C=C[C@]1(C)C[C@@H](OC(=O)CSc2nc(N)cc(NC(=O)CN(C)C)n2)[C@]2(C)[C@H](C)CC[C@]3(CCC(=O)[C@H]32)[C@@H](C)[C@@H]1O"
Resp: Not fulfilled

Req: Identify whether the reported zone of inhibition at 160 µg/mL of the following molecule is 20 mm or greater: "C=C[C@]1(C)C[C@@H](OC(=O)CSc2nc(N)cc(NC(=O)CN3CCC[C@@H](CO)C3)n2)[C@]2(C)[C@H](C)CC[C@]3(CCC(=O)[C@H]32)[C@@H](C)[C@@H]1O"
Resp: Fulfilled

Req: Identify whether the reported zone of inhibition at 160 µg/mL of the following molecule is 20 mm or greater: "C=C[C@]1(C)C[C@@H](OC(=O)CSc2nc(N)cc(NC(=O)CN3CCC(CCO)CC3)n2)[C@]2(C)[C@H](C)CC[C@]3(CCC(=O)[C@H]32)[C@@H](C)[C@@H]1O"
Resp: Fulfilled

Req: Identify whether the reported zone of inhibition at 160 µg/mL of the following molecule is 20 mm or greater: "C=C[C@]1(C)C[C@@H](OC(=O)CSc2nc(N)cc(NC(=O)CN3CCCCC3)n2)[C@]2(C)[C@H](C)CC[C@]3(CCC(=O)[C@H]32)[C@@H](C)[C@@H]1O"
Resp: Not fulfilled

Req: Identify whether the reported zone of inhibition at 160 µg/mL of the following molecule is 20 mm or greater: "C=C[C@]1(C)C[C@@H](OC(=O)CSc2nc(N)cc(NC(=O)CN3CCC(O)CC3)n2)[C@]2(C)[C@H](C)CC[C@]3(CCC(=O)[C@H]32)[C@@H](C)[C@@H]1O"
Resp: Fulfilled

Req: Identify whether the reported zone of inhibition at 160 µg/mL of the following molecule is 20 mm or greater: "C=C[C@]1(C)C[C@@H](OC(=O)CSc2nc(N)cc(NC(=O)CN3CCCC3)n2)[C@]2(C)[C@H](C)CC[C@]3(CCC(=O)[C@H]32)[C@@H](C)[C@@H]1O"
Resp: Not fulfilled

Req: Identify whether the reported zone of inhibition at 160 µg/mL of the following molecule is 20 mm or greater: "C=C[C@]1(C)C[C@@H](OC(=O)CSc2nc(N)cc(N)n2)[C@]2(C)[C@H](C)CC[C@]3(CCC(=O)[C@H]32)[C@@H](C)[C@@H]1O"
Resp: Fulfilled

====

System: Staphylococcus aureus
Test: Antibacterial activity against […] Staphylococcus aureus ATCC 33591 at 320 ug/ml after 24 to 36 hrs by oxford cup assay
Type: functional
Conditions: read-out: DIZ
Please go through the items and note down their zone of inhibition at 320 µg/mL.
Form entry: value (mm) — number only.

Bench note, Staphylococcus aureus: entry "C=C[C@]1(C)C[C@@H](OC(=O)CSc2nc(N)cc(NC(=O)CN3CCCC3)n2)[C@]2(C)[C@H](C)CC[C@]3(CCC(=O)[C@H]32)[C@@H](C)[C@@H]1O" , its zone of inhibition at 320 µg/mL = 24

Bench note, Staphylococcus aureus: entry "C=C[C@]1(C)C[C@@H](OC(=O)CSc2nc(N)cc(NC(=O)CN3CC[C@H](O)C3)n2)[C@]2(C)[C@H](C)CC[C@]3(CCC(=O)[C@H]32)[C@@H](C)[C@@H]1O" , its zone of inhibition at 320 µg/mL = 33.3

Bench note, Staphylococcus aureus: entry "C=C[C@]1(C)C[C@@H](OC(=O)CSc2nc(N)cc(NC(=O)CN3CCCCC3)n2)[C@]2(C)[C@H](C)CC[C@]3(CCC(=O)[C@H]32)[C@@H](C)[C@@H]1O" , its zone of inhibition at 320 µg/mL = 22.8

Bench note, Staphylococcus aureus: entry "C=C[C@]1(C)C[C@@H](OC(=O)CSc2nc(N)cc(NC(=O)CN3CCC[C@@H](CO)C3)n2)[C@]2(C)[C@H](C)CC[C@]3(CCC(=O)[C@H]32)[C@@H](C)[C@@H]1O" , its zone of inhibition at 320 µg/mL = 35.1

Bench note, Staphylococcus aureus: entry "C=C[C@]1(C)C[C@@H](OC(=O)CSc2nc(N)cc(N)n2)[C@]2(C)[C@H](C)CC[C@]3(CCC(=O)[C@H]32)[C@@H](C)[C@@H]1O" , its zone of inhibition at 320 µg/mL = 35.8

Bench note, Staphylococcus aureus: entry "C=C[C@]1(C)C[C@@H](OC(=O)CSc2nc(N)cc(NC(=O)CN3CCC(CCO)CC3)n2)[C@]2(C)[C@H](C)CC[C@]3(CCC(=O)[C@H]32)[C@@H](C)[C@@H]1O" , its zone of inhibition at 320 µg/mL = 32.4

Bench note, Staphylococcus aureus: entry "C=C[C@]1(C)C[C@@H](OC(=O)CSc2nc(N)cc(NC(=O)CN3CCC(O)CC3)n2)[C@]2(C)[C@H](C)CC[C@]3(CCC(=O)[C@H]32)[C@@H](C)[C@@H]1O" , its zone of inhibition at 320 µg/mL = 34.4

Bench note, Staphylococcus aureus: entry "C=C[C@]1(C)C[C@@H](OC(=O)CSc2nc(N)cc(NC(=O)CN(C)C)n2)[C@]2(C)[C@H](C)CC[C@]3(CCC(=O)[C@H]32)[C@@H](C)[C@@H]1O" , its zone of inhibition at 320 µg/mL = 22.4

Bench note, Staphylococcus aureus: entry "C=C[C@]1(C)C[C@@H](OC(=O)CSc2nc(N)cc(NC(=O)CN3CCOCC3)n2)[C@]2(C)[C@H](C)CC[C@]3(CCC(=O)[C@H]32)[C@@H](C)[C@@H]1O" , its zone of inhibition at 320 µg/mL = 26.8

Bench note, Staphylococcus aureus: entry "C=C[C@]1(C)C[C@@H](OC(=O)CSCCN(CC)CC)[C@]2(C)[C@H](C)CC[C@]3(CCC(=O)[C@H]32)[C@@H](C)[C@@H]1O" , its zone of inhibition at 320 µg/mL = 33.9

Bench note, Staphylococcus aureus: entry "C=C[C@]1(C)C[C@@H](OC(=O)CSc2nc(N)cc(NC(=O)CN(CC)CC)n2)[C@]2(C)[C@H](C)CC[C@]3(CCC(=O)[C@H]32)[C@@H](C)[C@@H]1O" , its zone of inhibition at 320 µg/mL = 25.8

====

Test system: Bacillus subtilis
Test: Antibacterial activity against Bacillus subtilis CMCC (B) 63501 after 24 to 48 hrs by agar dilution method
Type: functional
METRIC: MIC (µg/mL)
Form entry: value (µg/mL) — number only.

Entry "C=C[C@]1(C)C[C@@H](OC(=O)CSc2nc(N)cc(NC(=O)CN3CCOCC3)n2)[C@]2(C)[C@H](C)CC[C@]3(CCC(=O)[C@H]32)[C@@H](C)[C@@H]1O" ; MIC = 2

Entry "C=C[C@]1(C)C[C@@H](OC(=O)CSc2nc(N)cc(NC(=O)CN(C)C)n2)[C@]2(C)[C@H](C)CC[C@]3(CCC(=O)[C@H]32)[C@@H](C)[C@@H]1O" ; MIC = 4

Entry "C=C[C@]1(C)C[C@@H](OC(=O)CSc2nc(N)cc(NC(=O)CN(CC)CC)n2)[C@]2(C)[C@H](C)CC[C@]3(CCC(=O)[C@H]32)[C@@H](C)[C@@H]1O" ; MIC = 4

Entry "C=C[C@]1(C)C[C@@H](OC(=O)CSc2nc(N)cc(NC(=O)CN3CCCCC3)n2)[C@]2(C)[C@H](C)CC[C@]3(CCC(=O)[C@H]32)[C@@H](C)[C@@H]1O" ; MIC = 4

Entry "C=C[C@]1(C)C[C@@H](OC(=O)CSc2nc(N)cc(NC(=O)CN3CC[C@H](O)C3)n2)[C@]2(C)[C@H](C)CC[C@]3(CCC(=O)[C@H]32)[C@@H](C)[C@@H]1O" ; MIC = 2

Entry "C=C[C@]1(C)C[C@@H](OC(=O)CSc2nc(N)cc(NC(=O)CN3CCC(O)CC3)n2)[C@]2(C)[C@H](C)CC[C@]3(CCC(=O)[C@H]32)[C@@H](C)[C@@H]1O" ; MIC = 2

Entry "C=C[C@]1(C)C[C@@H](OC(=O)CSc2nc(N)cc(NC(=O)CN3CCC[C@@H](CO)C3)n2)[C@]2(C)[C@H](C)CC[C@]3(CCC(=O)[C@H]32)[C@@H](C)[C@@H]1O" ; MIC = 1

Entry "C=C[C@]1(C)C[C@@H](OC(=O)CSCCN(CC)CC)[C@]2(C)[C@H](C)CC[C@]3(CCC(=O)[C@H]32)[C@@H](C)[C@@H]1O" ; MIC = 2

Entry "C=C[C@]1(C)C[C@@H](OC(=O)CSc2nc(N)cc(NC(=O)CN3CCC(CCO)CC3)n2)[C@]2(C)[C@H](C)CC[C@]3(CCC(=O)[C@H]32)[C@@H](C)[C@@H]1O" ; MIC = 2

Entry "C=C[C@]1(C)C[C@@H](OC(=O)CSc2nc(N)cc(N)n2)[C@]2(C)[C@H](C)CC[C@]3(CCC(=O)[C@H]32)[C@@H](C)[C@@H]1O" ; MIC = 2

Entry "C=C[C@]1(C)C[C@@H](OC(=O)CSc2nc(N)cc(NC(=O)CN3CCCC3)n2)[C@]2(C)[C@H](C)CC[C@]3(CCC(=O)[C@H]32)[C@@H](C)[C@@H]1O" ; MIC = 2
